Sourced from patent US10344026B2

- Tested on: phospho-Akt in HCC827 (Wild-type)
- METHOD SUMMARY: In-Cell Western phospho-Akt, HCC827
- Format: cell-based
- TEST CONTEXT: Homo sapiens, 1 h; HCC827, one hour treatment; read-out: In-Cell Western HCC827 (Wild-type) Akt (P)
Consider the following compounds; for each one, report its EC50.
One number for each entry, in µM.

Cc1nc(C2CCOC2O)sc1C(=O)Nc1nc(-c2ccc3c(c2)CCC(=O)N3Cc2cccnc2)cs1 (centres unmarked)
27

The record that follows has no EC50 shown yet.
Note to self: EC50 recorded for CCc1nc(C)c(C(=O)Nc2nc(-c3ccc4c(c3)CCC(=O)N4Cc3cccnc3)cs2)o1 was 15
